target desc: T1, formyl peptide receptor 2 (FPR2) (UniProt P25090 1-351, limits assumed)
T1 sequence (looked up): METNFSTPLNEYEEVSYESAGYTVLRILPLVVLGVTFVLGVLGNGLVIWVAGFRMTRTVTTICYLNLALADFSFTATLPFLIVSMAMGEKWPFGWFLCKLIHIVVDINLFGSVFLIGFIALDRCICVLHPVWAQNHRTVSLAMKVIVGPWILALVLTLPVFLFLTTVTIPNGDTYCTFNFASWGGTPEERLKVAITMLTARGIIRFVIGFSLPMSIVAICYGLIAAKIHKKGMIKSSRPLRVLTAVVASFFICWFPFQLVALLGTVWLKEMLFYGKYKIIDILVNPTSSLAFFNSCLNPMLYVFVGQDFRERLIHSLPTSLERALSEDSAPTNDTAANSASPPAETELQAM
assay summary: cell-based or functional assay
EC50 for [Ca2+]: recorded values

These recorded examples may help you get a feel for the data.
>  <binder>
RWRYKYM (HELM PEPTIDE1{[ac].R.W.R.Y.K.Y.[dM].[am]}$$$$V2.0; SMILES CSCC[C@@H](NC(=O)[C@H](Cc1ccc(O)cc1)NC(=O)[C@H](CCCCN)NC(=O)[C@H](Cc1ccc(O)cc1)NC(=O)[C@H](CCCNC(=N)N)NC(=O)[C@H](Cc1c[nH]c2ccccc12)NC(=O)[C@H](CCCNC(=N)N)NC(C)=O)C(N)=O) [peptide of SEQ ID NO 33]

>  <EC50 for [Ca2+]>
< 10 nM

$$$$
>  <binder>
RWRYTYM (HELM PEPTIDE1{R.W.R.Y.T.Y.[dM].[am]}$$$$V2.0; N-terminus assumed; SMILES CSCC[C@@H](NC(=O)[C@H](Cc1ccc(O)cc1)NC(=O)[C@@H](NC(=O)[C@H](Cc1ccc(O)cc1)NC(=O)[C@H](CCCNC(=N)N)NC(=O)[C@H](Cc1c[nH]c2ccccc12)NC(=O)[C@@H](N)CCCNC(=N)N)[C@@H](C)O)C(N)=O) [peptide of SEQ ID NO 157]

>  <EC50 for [Ca2+]>
< 10 nM

$$$$

// switching to the query binder
Input: # input binder: HMRYKPM (HELM PEPTIDE1{[CCCCCCCC(=O)[*:2]].H.M.R.Y.K.P.[dM].[am]}$$$$V2.0; SMILES CCCCCCCC(=O)N[C@@H](Cc1c[nH]cn1)C(=O)N[C@@H](CCSC)C(=O)N[C@@H](CCCNC(=N)N)C(=O)N[C@@H](Cc1ccc(O)cc1)C(=O)N[C@@H](CCCCN)C(=O)N1CCC[C@H]1C(=O)N[C@H](CCSC)C(N)=O) [peptide of SEQ ID NO 61] ; wanted: its EC50 for [Ca2+]
Output: < 10 nM
